system: PC12 cells; experiment: Neuroprotection against H2O2-induced cell death in PC12 cells (MTT); format: cell-based; conditions: 0.1 μM compound, H2O2 (150 μM)-induced injury, mean ± SEM
reported-endpoint: PC12 cell viability (% of control)

{"columns": ["molecule", "reported-endpoint", "observed-measurement"],
 "data": [
  ["O=c1oc2ccc([N+](=O)[O-])cc2cc1-c1ccc(OCCCC[n+]2ccccc2)cc1.[Br-]", "PC12 cell viability (% of control)", "23.7 ± 0.5 % of control"],
  ["COc1ccc2oc(=O)c(-c3ccc(OCCC[n+]4ccccc4)cc3)cc2c1.[Br-]", "PC12 cell viability (% of control)", "31.7 ± 1.4 % of control"],
  ["O=c1oc2ccccc2cc1-c1ccc(OCCCC[n+]2ccccc2)cc1.[Br-]", "PC12 cell viability (% of control)", "30.2 ± 1.4 % of control"],
  ["O=c1c(O)c(-c2ccc(O)c(O)c2)oc2cc(O)cc(O)c12 [Quercetin, reference compound]", "PC12 cell viability (% of control)", "37.7 ± 1.2 % of control"],
  ["O=c1oc2ccccc2cc1-c1ccc(OCCC[n+]2ccccc2)cc1.[Br-]", "PC12 cell viability (% of control)", "39.4 ± 1.7 % of control"],
  ["O=c1oc2ccc([N+](=O)[O-])cc2cc1-c1ccc(OCCC[n+]2ccccc2)cc1.[Br-]", "PC12 cell viability (% of control)", "34.1 ± 1.0 % of control"],
  ["CN(C)c1cc[n+](CCCOc2ccc(-c3cc4cc([N+](=O)[O-])ccc4oc3=O)cc2)cc1.[Br-]", "PC12 cell viability (% of control)", "38.3 ± 0.9 % of control"]
]}

---

biological target: AChE (electric eel) (Electrophorus electricus)
Sequence (O42275 24-633): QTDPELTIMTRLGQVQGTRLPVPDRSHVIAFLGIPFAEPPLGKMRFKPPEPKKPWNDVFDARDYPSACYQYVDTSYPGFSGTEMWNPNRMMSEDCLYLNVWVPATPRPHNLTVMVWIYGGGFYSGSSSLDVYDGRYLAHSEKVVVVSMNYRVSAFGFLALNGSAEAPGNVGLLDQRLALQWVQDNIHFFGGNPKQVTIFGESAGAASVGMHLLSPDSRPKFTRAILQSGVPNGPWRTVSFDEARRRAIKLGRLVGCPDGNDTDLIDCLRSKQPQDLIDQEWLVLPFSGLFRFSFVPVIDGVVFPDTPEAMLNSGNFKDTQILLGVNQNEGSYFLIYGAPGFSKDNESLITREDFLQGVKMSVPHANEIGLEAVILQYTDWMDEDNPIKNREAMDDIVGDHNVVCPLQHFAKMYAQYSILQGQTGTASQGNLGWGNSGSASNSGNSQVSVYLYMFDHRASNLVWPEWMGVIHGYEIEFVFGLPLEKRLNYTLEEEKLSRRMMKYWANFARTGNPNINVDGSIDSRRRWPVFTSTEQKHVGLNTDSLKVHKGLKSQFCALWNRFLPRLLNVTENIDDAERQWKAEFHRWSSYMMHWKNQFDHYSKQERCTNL
pIC50: −log10 of the molar value.
Rule: True for pIC50 not less than 8, False for anything less.

{"columns": ["compound", "category-label"],
 "data": [
  ["CCc1ccc(C)[n+](CCCCCOc2ccc(-c3cc4cc(Br)ccc4oc3=O)cc2)c1 [Compound 3q]", "False"],
  ["O=c1oc2ccc([N+](=O)[O-])cc2cc1-c1ccc(OCCC[n+]2ccccc2)cc1.[Br-] [Compound 3f]", "True"],
  ["O=c1oc2ccccc2cc1-c1ccc(OCCCCC[n+]2ccccc2)cc1 [Compound 3m]", "False"],
  ["CN(C)c1cc[n+](CCCOc2ccc(-c3cc4ccccc4oc3=O)cc2)cc1 [Compound 3s]", "False"],
  ["O=c1oc2ccc([N+](=O)[O-])cc2cc1-c1ccc(OCCCC[n+]2ccccc2)cc1.[Br-] [Compound 3l]", "True"],
  ["COc1ccc2cc(-c3ccc(OCCCC[n+]4ccccc4)cc3)c(=O)oc2c1 [Compound 3i]", "False"],
  ["COc1cccc2cc(-c3ccc(OCCCC[n+]4ccccc4)cc3)c(=O)oc12 [Compound 3j]", "False"],
  ["COc1ccc2oc(=O)c(-c3ccc(OCCC[n+]4ccccc4)cc3)cc2c1.[Br-] [Compound 3b]", "True"],
  ["O=c1oc2ccccc2cc1-c1ccc(OCCC[n+]2ccccc2)cc1.[Br-] [Compound 3a]", "True"],
  ["O=c1oc2ccc([N+](=O)[O-])cc2cc1-c1ccc(OCCCCC[n+]2ccccc2)cc1 [Compound 3o]", "False"],
  ["COc1ccc2oc(=O)c(-c3ccc(OCCCC[n+]4ccccc4)cc3)cc2c1 [Compound 3h]", "False"],
  ["O=c1oc2ccc(Br)cc2cc1-c1ccc(OCCCC[n+]2ccccc2)cc1 [Compound 3k]", "False"],
  ["O=c1oc2ccc(Br)cc2cc1-c1ccc(OCCCCC[n+]2ccccc2)cc1 [Compound 3p]", "True"],
  ["COc1cccc2cc(-c3ccc(OCCC[n+]4ccccc4)cc3)c(=O)oc12 [Compound 3d]", "False"]
]}
